So I've got a bunch of compounds here, and I need their TGI values.
tested on: DU-145; assay: Cytotoxicity against human DU145 cells after 48 hrs by SRB assay; format: functional; conditions: DU-145, 48 h, read-out: TGI
Give bare numbers, in µM.

Fill in TGI for each of the 2 compounds listed.
1. C#C[C@@]1(O)[C@@H](CO)O[C@@H](n2ccc3c(N)ncnc32)[C@@H]1O
2. C#C[C@@]1(O)[C@@H](CO)O[C@@H](n2cc(F)c3c(N)ncnc32)[C@@H]1O

1. 6.55
2. 13.4

====

test system: ACHN; assay: Growth inhibition of human ACHN cells assessed as cell growth at 10^-5 M incubated for 48 hrs by sulforhodamine B assay relative to control; format: functional; settings: read-out: Activity
Could you mark each record YES if its growth at 10 µM falls strictly under -20%, and NO if it equals or exceeds it?

Reference set (3 entries):
>  <molecule>
C#C[C@@]1(O)[C@@H](CO)O[C@@H](n2cc(Cl)c3c(N)ncnc32)[C@@H]1O

>  <class>
YES

$$$$
>  <molecule>
C#C[C@@]1(O)[C@@H](CO)O[C@@H](n2ccc3c(N)ncnc32)[C@@H]1O

>  <class>
NO

$$$$
>  <molecule>
C#C[C@@]1(O)[C@@H](CO)O[C@@H](n2cc(I)c3c(N)ncnc32)[C@@H]1O

>  <class>
NO

$$$$

hey, is growth at 10 µM for C#C[C@@]1(O)[C@@H](CO)O[C@@H](n2cc(Br)c3c(N)ncnc32)[C@@H]1O lower than -20% or not?
NO

# check: growth at 10 µM < -20% for C#C[C@@]1(O)[C@@H](CO)O[C@@H](n2cc(F)c3c(N)ncnc32)[C@@H]1O
NO

====

tested on: BT-549; assay: Growth inhibition of human BT549 cells assessed as cell growth at 10^-7 M incubated for 48 hrs by sulforhodamine B assay relative to control; format: functional; settings: BT-549, 48 h, read-out: Activity
assay_endpoint: growth at 0.1 µM (%)
One number for each entry, in %.

>  <molecule>
C#C[C@@]1(O)[C@@H](CO)O[C@@H](n2ccc3c(N)ncnc32)[C@@H]1O

>  <observed>
102

$$$$

Here's the next entry for you.
Could you share what growth at 0.1 µM was measured for C#C[C@@]1(O)[C@@H](CO)O[C@@H](n2cc(F)c3c(N)ncnc32)[C@@H]1O , tested on BT-549?
107

====

So I've got a bunch of molecules here, and I need their growth at 0.01 µM values.
system: NCI-H522; experiment: Growth inhibition of human NCI-H522 cells assessed as cell growth at 10^-8 M incubated for 48 hrs by sulforhodamine B assay relative to control; type: functional; details: NCI-H522, 48 h, read-out: Activity

Batch of 2 molecules: report growth at 0.01 µM for each.
1. C#C[C@@]1(O)[C@@H](CO)O[C@@H](n2cc(Br)c3c(N)ncnc32)[C@@H]1O
2. C#C[C@@]1(O)[C@@H](CO)O[C@@H](n2cc(F)c3c(N)ncnc32)[C@@H]1O

1. 89 to 95%
2. 84%

====

system: MDA-MB-231; experiment: Growth inhibition of human MDA-MB-231 cells assessed as cell growth at 10^-4 M incubated for 48 hrs by sulforhodamine B assay relative to control; assay type: functional; details: MDA-MB-231, 48 h, read-out: Activity
For each entry below, report its growth at 100 µM value.
One number for each entry, in %.

Solved cases below.
>  <molecule>
C#C[C@@]1(O)[C@@H](CO)O[C@@H](n2ccc3c(N)ncnc32)[C@@H]1O

>  <readout_units>
%

>  <observed>
-53

$$$$
>  <molecule>
C#C[C@@]1(O)[C@@H](CO)O[C@@H](n2cc(F)c3c(N)ncnc32)[C@@H]1O

>  <readout_units>
%

>  <observed>
-35

$$$$

// next item, growth at 100 µM requested
API: value(readout= growth at 100 µM, system= MDA-MB-231, query= C#C[C@@]1(O)[C@@H](CO)O[C@@H](n2cc(Br)c3c(N)ncnc32)[C@@H]1O )
9

====

test system: HOP-62; assay: Growth inhibition of human HOP62 cells assessed as cell growth at 10^-8 M incubated for 48 hrs by sulforhodamine B assay relative to control; assay type: functional; conditions: HOP-62, 48 h, read-out: Activity
assay_endpoint: growth at 0.01 µM (%)
Numbers only, in %.

>  <molecule>
C#C[C@@]1(O)[C@@H](CO)O[C@@H](n2ccc3c(N)ncnc32)[C@@H]1O

>  <target_desc>
HOP-62

>  <growth at 0.01 µM (%)>
87

$$$$

Okay, now this molecule:
Fill blank: measured growth at 0.01 µM of the molecule C#C[C@@]1(O)[C@@H](CO)O[C@@H](n2cc(F)c3c(N)ncnc32)[C@@H]1O is ____.
90

====

tested on: UACC-62; test: Growth inhibition of human UACC62 cells assessed as cell growth at 10^-7 M incubated for 48 hrs by sulforhodamine B assay relative to control; format: functional; conditions: UACC-62, 48 h, read-out: Activity
Kindly state growth at 0.1 µM for each of the entries shown.
Give bare numbers, in %.

>  <molecule>
C#C[C@@]1(O)[C@@H](CO)O[C@@H](n2ccc3c(N)ncnc32)[C@@H]1O

>  <readout_units>
%

>  <growth at 0.1 µM>
101

$$$$

Endpoint output: growth at 0.1 µM of C#C[C@@]1(O)[C@@H](CO)O[C@@H](n2cc(F)c3c(N)ncnc32)[C@@H]1O . Value?
91

====

Field: MCC. Provide a value for each of the molecules that follow.
assay: Cytotoxicity against HELF cells assessed as alteration of cell morphology by microscopic analysis; type: cell-based; settings: human

>  <molecule>
Nc1ccn(C[C@@H](CO)OCP(=O)(O)O)c(=O)n1

>  <observed>
250 to 300 µM

$$$$
>  <molecule>
C#C[C@@]1(O)[C@@H](CO)O[C@@H](n2ccc3c(Cl)ccnc32)[C@@H]1O

>  <observed>
20 to 100 µM

$$$$
>  <molecule>
CC[C@@]1(O)[C@@H](CO)O[C@@H](n2cc(Cl)c3c(N)ncnc32)[C@@H]1O

>  <observed>
4 to 20 µM

$$$$
>  <molecule>
Nc1nc2c(ncn2COCCO)c(=O)[nH]1

>  <observed>
250 to 440 µM

$$$$
>  <molecule>
C#C[C@@]1(O)[C@@H](CO)O[C@@H](n2cc(I)c3c(Cl)ccnc32)[C@@H]1O

>  <observed>
20 to 100 µM

$$$$

// batch mode: one MCC value per listed entry
1. C#C[C@@]1(O)[C@@H](CO)O[C@@H](n2cc(Cl)c3c(N)ccnc32)[C@@H]1O
2. C#C[C@@]1(O)[C@@H](CO)O[C@@H](n2cc(Br)c3c(Cl)ccnc32)[C@@H]1O
3. C#C[C@@]1(O)[C@@H](CO)O[C@@H](n2cnc3c(N)ncnc32)[C@@H]1O
4. C#C[C@@]1(O)[C@@H](CO)O[C@@H](n2cc(Cl)c3c(Cl)ccnc32)[C@@H]1O

1: ≥ 100 µM; 2: ≥ 100 µM; 3: 20 µM; 4: 20 to 100 µM

Consider the molecule shown here: Nc1nc2c(ncn2COC(CO)CO)c(=O)[nH]1 What is its recorded MCC?
100 to 350 µM

====

test system: LOX IMVI; test: Cytotoxicity against human LOXIMVI cells after 48 hrs by SRB assay; assay type: functional; details: read-out: TGI
assay_endpoint: TGI (nM)
One number for each entry, in nM.

>  <molecule>
C#C[C@@]1(O)[C@@H](CO)O[C@@H](n2cc(F)c3c(N)ncnc32)[C@@H]1O

>  <target_desc>
LOX IMVI

>  <readout_units>
nM

>  <observed>
1110

$$$$

Look up TGI: C#C[C@@]1(O)[C@@H](CO)O[C@@H](n2ccc3c(N)ncnc32)[C@@H]1O
2050

====

Provide the reported growth at 0.1 µM of each item.
test system: HL-60(TB); assay: Growth inhibition of human HL-60(TB) cells assessed as cell growth at 10^-7 M incubated for 48 hrs by sulforhodamine B assay relative to control; assay type: functional; details: HL-60, 48 h, read-out: Activity

Take a look at these entries with their results.
>  <molecule>
C#C[C@@]1(O)[C@@H](CO)O[C@@H](n2ccc3c(N)ncnc32)[C@@H]1O

>  <target_desc>
HL-60(TB)

>  <growth at 0.1 µM>
105%

$$$$
>  <molecule>
C#C[C@@]1(O)[C@@H](CO)O[C@@H](n2cc(F)c3c(N)ncnc32)[C@@H]1O

>  <target_desc>
HL-60(TB)

>  <growth at 0.1 µM>
103%

$$$$
>  <molecule>
C#C[C@@]1(O)[C@@H](CO)O[C@@H](n2cc(Cl)c3c(N)ncnc32)[C@@H]1O

>  <target_desc>
HL-60(TB)

>  <growth at 0.1 µM>
19 to 47%

$$$$

Requested field: growth at 0.1 µM. Item: C#C[C@@]1(O)[C@@H](CO)O[C@@H](n2cc(I)c3c(N)ncnc32)[C@@H]1O
16 to 43%
